Each recorded value in this set is attributed to ChEMBL document CHEMBL1158155.

Would you mind telling me the reported pIC50 of each entry?
System: HT-29
Assay: Cytotoxicity against human HT29 cells after 4 days by MTT assay
Assay type: functional, cell-based
Settings: HT-29, 96 h
Numbers only, as −log10 of the molar value.

Answered cases to consult:
[[record]]
smilesinput = "CC[C@@]1(O)C(=O)OCc2c1cc1n(c2=O)Cc2cc3c4c(ccc3nc2-1)OCN(c1ccc(F)c(F)c1F)C4"
valuetype = "pIC50"
measurednumber = 6.21

[[record]]
smilesinput = "CC[C@@]1(O)C(=O)OCc2c1cc1n(c2=O)Cc2cc3c4c(ccc3nc2-1)OCN(c1ccccc1OC)C4"
valuetype = "pIC50"
measurednumber = 6.51

[[record]]
smilesinput = "CC[C@@]1(O)C(=O)OCc2c1cc1n(c2=O)Cc2cc3c4c(ccc3nc2-1)OCN(c1ccc(Cl)cc1)C4"
valuetype = "pIC50"
measurednumber = 6.68

[[record]]
smilesinput = "CCCCN1COc2ccc3nc4c(cc3c2C1)Cn1c-4cc2c(c1=O)COC(=O)[C@]2(O)CC"
valuetype = "pIC50"
measurednumber = 6.89

[[record]]
smilesinput = "CC[C@@]1(O)C(=O)OCc2c1cc1n(c2=O)Cc2cc3c4c(ccc3nc2-1)OCN(Cc1ccc(OC)cc1)C4"
valuetype = "pIC50"
measurednumber = 5.77

[[record]]
smilesinput = "CC[C@@]1(O)C(=O)OCc2c1cc1n(c2=O)Cc2cc3c4c(ccc3nc2-1)OCN(c1cccc(C)c1)C4"
valuetype = "pIC50"
measurednumber = 6.47


Provide pIC50 values for the following items, in order.
1. CC[C@@]1(O)C(=O)OCc2c1cc1n(c2=O)Cc2cc3c4c(ccc3nc2-1)OCN(c1ccccc1Cl)C4
2. CC[C@@]1(O)C(=O)OCc2c1cc1n(c2=O)Cc2cc3c4c(ccc3nc2-1)OCN(c1ccc(OC)cc1)C4

Output line:
1: 5.98; 2: 6.51

----------
System: HepG2
Assay: Cytotoxicity against human HepG2 cells after 4 days by MTT assay
Format: functional, cell-based
Conditions: HepG2, 96 h
valueType: IC50
The answer consists of two parts: a number and, after it, its unit.

[[record]]
smilesinput = "CC[C@@]1(O)C(=O)OCc2c1cc1n(c2=O)Cc2cc3c4c(ccc3nc2-1)OCN(C)C4"
result = "640 nM"


The following molecules each have a reported value; give each one's IC50.
1. CC[C@@]1(O)C(=O)OCc2c1cc1n(c2=O)Cc2cc3c4c(ccc3nc2-1)OCN(c1ccc(OC)cc1)C4
2. CC[C@@]1(O)C(=O)OCc2c1cc1n(c2=O)Cc2cc3c4c(ccc3nc2-1)OCN(Cc1ccc(F)cc1)C4
3. CC[C@@]1(O)C(=O)OCc2c1cc1n(c2=O)Cc2cc3c4c(ccc3nc2-1)OCN(c1ccccc1C)C4

Output line:
120 nM
140 nM
180 nM

I have 8 molecules here; please give me IC50 for each one.
1. CC[C@@]1(O)C(=O)OCc2c1cc1n(c2=O)Cc2cc3c4c(ccc3nc2-1)OCN(c1ccccc1)C4
2. CC[C@@]1(O)C(=O)OCc2c1cc1n(c2=O)Cc2cc3c4c(ccc3nc2-1)OCN(c1ccc(F)cc1F)C4
3. CC[C@@]1(O)C(=O)OCc2c1cc1n(c2=O)Cc2cc3c4c(ccc3nc2-1)OCN(Cc1ccccc1)C4
4. CCCN1COc2ccc3nc4c(cc3c2C1)Cn1c-4cc2c(c1=O)COC(=O)[C@]2(O)CC
5. CC[C@@]1(O)C(=O)OCc2c1cc1n(c2=O)Cc2cc3ccccc3nc2-1
6. CCN1COc2ccc3nc4c(cc3c2C1)Cn1c-4cc2c(c1=O)COC(=O)[C@]2(O)CC
7. CC[C@@]1(O)C(=O)OCc2c1cc1n(c2=O)Cc2cc3c4c(ccc3nc2-1)OCN(c1ccccc1OC)C4
8. CCCCN1COc2ccc3nc4c(cc3c2C1)Cn1c-4cc2c(c1=O)COC(=O)[C@]2(O)CC

Output line:
1. 30 nM
2. 550 nM
3. 110 nM
4. 10 nM
5. 130 nM
6. 50 nM
7. 130 nM
8. 350 nM

Would you be so kind as to report IC50 for each listed record?
1. CC[C@@]1(O)C(=O)OCc2c1cc1n(c2=O)Cc2cc3c4c(ccc3nc2-1)OCN(c1ccc(Cl)cc1)C4
2. CC[C@@]1(O)C(=O)OCc2c1cc1n(c2=O)Cc2cc3c4c(ccc3nc2-1)OCN(c1ccc(F)c(Cl)c1)C4
3. CC[C@@]1(O)C(=O)OCc2c1cc1n(c2=O)Cc2cc3c4c(ccc3nc2-1)OCN(Cc1ccc(OC)cc1)C4
4. CC[C@@]1(O)C(=O)OCc2c1cc1n(c2=O)Cc2cc3c4c(ccc3nc2-1)OCN(c1cccc(C)c1)C4

Output line:
170 nM
180 nM
1470 nM
930 nM
